- ASSAYED_TARGET: human TLR9 (Homo sapiens)
- ASSAY_OVERVIEW: TLR9 inhibition reporter assay (HEK-Blue cells, SEAP reporter, ODN2006 stimulation)
- STATED_CONDITIONS: HEK-Blue cells overexpressing human TLR9, ODN2006 5 nM
MEASURED_METRIC: pIC50
Expect pIC50 as a plain number equal to -log10 of the molar concentration.

The examples below pair each entry with its known result.
Observed pIC50 on human TLR9 (Homo sapiens), entry COc1ccc(-c2[nH]c3ccc(C4CCN(CC(=O)NCCN(C)C)CC4)cc3c2CC(F)(F)F)cc1OC [Example 380] , equals 6.13

With human TLR9 (Homo sapiens) as the test system, COc1ccc(-c2[nH]c3ccc(C4CCN(C(=O)CNC5CCC(O)CC5)CC4)cc3c2C(C)C)cc1OC (centres unmarked) [Example 246] showed pIC50 of 6.18

pIC50 value, target or system human TLR9 (Homo sapiens), for COc1ccc(-c2[nH]c3cc(C)c(C4CCN(C5CCN(C(C)C)CC5)CC4)cc3c2C)cc1OC [Example 115] : 7.11

Item COc1ccc(-c2[nH]c3ccc(C4CCN(C5CCCN(C(C)C)CC5)CC4)cc3c2C)cc1OC (centres unmarked) [Example 92] ; assay system human TLR9 (Homo sapiens); pIC50 reported as 7.23

With human TLR9 (Homo sapiens) as the test system, COc1ccc(-c2[nH]c3ccc(C4CCN(C(=O)CCN5CCCCC5)CC4)cc3c2CC(F)(F)F)cc1OC [Example 330] showed pIC50 of 5.79

Further cases:
Lab entry: human TLR9 (Homo sapiens) assay, molecule COc1ccc(-c2[nH]c3ccc(C4CCN(CC(=O)N5CC[C@H](O)C5)CC4)cc3c2C(C)C)cc1OC [Example 278] , pIC50 = 5.54

Item: COc1ccc(-c2[nH]c3ccc(C4CCN(C(=O)CNCC(C)O)CC4)cc3c2C(C)C)cc1OC (centres unmarked) [Example 210] | System: human TLR9 (Homo sapiens) | pIC50: 5.71

Entry CCOC(=O)c1c(C)[nH]c(CN2CCC(N3CCC(c4ccc5[nH]c(-c6ccc(OC)c(OC)c6)c(CC)c5c4)CC3)CC2)c1C [Example 127] ; assay system human TLR9 (Homo sapiens); pIC50 recorded at 6.57

Given the molecule COc1ccc(-c2[nH]c3ccc(C4CCN(C5CCCN(C6COC6)CC5)CC4)cc3c2C)cc1OC (centres unmarked) [Example 96] and test system human TLR9 (Homo sapiens), the measured pIC50 is 6.73

Record COc1ccc(-c2[nH]c3ccc(C4CCN(CC(=O)NCC(N)=O)CC4)cc3c2CC(F)(F)F)cc1OC [Example 385] / human TLR9 (Homo sapiens), pIC50 recorded as 5.37

----------
- ASSAYED_TARGET: UniProt:Q9NR96
- Sequence (Q9NR96 26-1032): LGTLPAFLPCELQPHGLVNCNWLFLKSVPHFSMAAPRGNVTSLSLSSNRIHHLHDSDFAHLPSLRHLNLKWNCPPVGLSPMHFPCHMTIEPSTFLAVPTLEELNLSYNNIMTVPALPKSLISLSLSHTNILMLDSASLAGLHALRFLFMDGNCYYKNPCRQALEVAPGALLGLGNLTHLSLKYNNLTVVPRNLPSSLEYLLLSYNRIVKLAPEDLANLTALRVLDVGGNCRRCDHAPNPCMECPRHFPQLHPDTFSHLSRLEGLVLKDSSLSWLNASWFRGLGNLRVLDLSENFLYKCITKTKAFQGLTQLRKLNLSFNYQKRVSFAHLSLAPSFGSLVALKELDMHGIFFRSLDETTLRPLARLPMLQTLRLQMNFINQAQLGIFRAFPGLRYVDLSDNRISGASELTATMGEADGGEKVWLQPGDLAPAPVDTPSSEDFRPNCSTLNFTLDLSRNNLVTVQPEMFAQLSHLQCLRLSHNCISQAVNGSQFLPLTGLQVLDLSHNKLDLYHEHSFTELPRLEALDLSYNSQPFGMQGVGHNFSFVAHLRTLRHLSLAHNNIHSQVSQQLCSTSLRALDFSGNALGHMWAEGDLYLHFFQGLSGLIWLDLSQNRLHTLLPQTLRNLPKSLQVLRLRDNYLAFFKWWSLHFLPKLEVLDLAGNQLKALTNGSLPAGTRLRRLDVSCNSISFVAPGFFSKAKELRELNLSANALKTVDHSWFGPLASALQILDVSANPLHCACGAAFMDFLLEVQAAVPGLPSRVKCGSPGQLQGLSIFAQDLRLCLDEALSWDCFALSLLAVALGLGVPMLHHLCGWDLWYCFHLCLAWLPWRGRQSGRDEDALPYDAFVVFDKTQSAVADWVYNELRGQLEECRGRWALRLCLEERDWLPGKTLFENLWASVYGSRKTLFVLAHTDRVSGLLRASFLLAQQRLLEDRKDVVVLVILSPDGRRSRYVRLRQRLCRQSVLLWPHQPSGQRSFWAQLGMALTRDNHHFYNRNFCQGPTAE
- ASSAY_OVERVIEW: TLR9 inhibition reporter assay (HEK-Blue cells, SEAP reporter, ODN2006 stimulation)
- STATED_CONDITIONS: HEK-Blue cells overexpressing human TLR9, ODN2006 5 nM
Label Satisfied when IC50 is strictly below 2000 nM; at or above that, label Not satisfied.

Challenge: Given the entry COc1ccc(-c2[nH]c3ccc(C4CCN(C5CCCN(C6CCCC6)CC5)CC4)cc3c2C)cc1OC (stereo not drawn) [Example 93] , would its reported IC50 be below 2000 nM?
Response given: Satisfied

Challenge: Check if IC50 falls below 2000 nM for COc1ccc(-c2[nH]c3ccc(C4CCN(Cc5nccs5)CC4)cc3c2C(C)C)cc1OC [Example 261] .
Response given: Not satisfied

Challenge: Does the reported IC50 of COc1ccc(-c2[nH]c3ccc(C4CCN(C(=O)CCc5cccnc5)CC4)cc3c2CC(F)(F)F)cc1OC [Example 348] stay below 2000 nM?
Response given: Not satisfied
